Below: a set of entries, each annotated with reported inhibition.
method.summary: binders of r(CAG) RNA repeats, primary screen, biochemical, fluorescence (AID 651821);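 further: 0% = DMSO alone and 100% = 100 µM mitoxantrone as full dye displacement; higher means more dye released from RNA so lower well fluorescence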
assay.conditions: r(CAG) RNA repeat, TO-PRO-1 dye displacement fluorescence; at 3 µM; active compounds read high
Screen size: about 370,000 compounds; about 4,700 (1.3%) were called active. The list comes from a sample in which actives are over-represented; it also holds close analogues and randomly drawn compounds.
Lab book: enter the figure in %, no units written.

compound | experimental.result
CCn1cc(C(=O)NCC2COc3ccccc3O2)c2cc(OC)c(OC)cc2c1=O (stereo unspecified) | 53.3

Notebook: COc1ccc(-c2ccccc2C2Cc3nnccc3CN2C(=O)Nc2ccccc2)cc1 (stereo unspecified) , inhibition read as 8.81

Notebook: `COc1ccccc1Cc1c(-c2ccc(F)cc2)nc2ccc(C)cn12` , inhibition read as 6.12

Notebook: `O=C1C=C(c2ccc(Cl)cc2)C(=O)N1Nc1ccccc1` , inhibition read as 8.98

###

method.summary: binders of r(CAG) RNA repeats, primary screen, biochemical, fluorescence (AID 651821)
assay.conditions: r(CAG) RNA repeat, TO-PRO-1 dye displacement fluorescence; at 3 µM; active compounds read high
Out of some 370,000 compounds screened, about 4,700 (1.3%) were called active. The sample holds actives, similar compounds and a random draw of the others, so the mix is not that of the screen.
value.kind: inhibition (%)
Lab book: enter the figure in %, no units written.

Consider the reported inhibition for these molecules:
molecule | experimental.result
CSc1nsc(SCC(=O)Nc2cc(C(=O)O)ccc2C)n1 | 7.69
CC(=O)C1=C(C)N(Cc2ccccc2)C(=S)NC1c1cccc(Br)c1 (stereo not given) | 3.69

Here is another molecule to look at.
Notebook: `CCc1nnc(NS(=O)(=O)c2ccc(NC(=O)c3cccc(OC(F)(F)C(F)F)c3)cc2)s1` , inhibition read as 72.6

###

method.summary: binders of r(CAG) RNA repeats, primary screen, biochemical, fluorescence (AID 651821)
assay.conditions: r(CAG) RNA repeat, TO-PRO-1 dye displacement fluorescence; at 3 µM
Out of some 370,000 compounds screened, about 4,700 (1.3%) were called active.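 The calls were made as follows: active = inhibition above the plate cutoff, the mean of all test compounds on that plate plus 3 SD (cut at about 35% in these data); inactive = the rest.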 What follows is part of a selection rich in actives, with near analogues and random picks from the rest.
Pick one: active, inactive

Reference set (6 entries):
smiles.representation | classification
N#CC1(NC(=O)COC(=O)Cc2n[nH]c(=O)c3ccccc23)CCCCC1 | inactive
CC(C)OC(=O)c1ccc(COc2ccc3ccc(=O)oc3c2)o1 | inactive
COc1cc2ccccc2cc1C(=O)Nc1ccc(S(=O)(=O)Nc2cc(C)on2)cc1 | active
Nn1c(SCC(=O)Nc2ccc(S(N)(=O)=O)cc2)nnc1-c1n[nH]c2c1CCC2 | inactive
COCCNC(=S)N(C)[C@H]1C[C@H]2c3[nH]c4ccccc4c3CCN2C[C@H]1[C@H](C)O | inactive
CCOc1cc(C(=O)Nc2ccc(S(=O)(=O)Nc3cnc4ccccc4n3)cc2)cc(OCC)c1OCC | active

Kindly review the next compound as well.
Q. Could you kindly confirm the outcome this assay logged for `CCOc1ccc(C(=O)Nc2ccc(S(=O)(=O)Nc3cc(C)on3)cc2)cc1` ?
A. active

###

Below: a set of entries, each annotated with reported inhibition.
method.summary: binders of r(CAG) RNA repeats, primary screen, biochemical, fluorescence (AID 651821);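 further: 0% = DMSO alone and 100% = 100 µM mitoxantrone as full dye displacement; higher means more dye released from RNA so lower well fluorescence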
assay.conditions: r(CAG) RNA repeat, TO-PRO-1 dye displacement fluorescence; at 3 µM; active compounds read high
In all, about 370,000 compounds went through this assay and about 4,700 (1.3%) were called active. This is one part of a sample in which actives are shown more often than they occur.
Lab book: enter the figure in %, no units written.

Consider the reported inhibition for these compounds:
compound | inhibition [%]
Cc1nnc(NC(=O)Nc2ccc(Cl)c(Cl)c2)s1 | 41.7
CCc1cc(-c2nnc(SCC(=O)NC3CC3)n2C)cs1 | -0.55
C=CCN(C(=O)[C@@H](CCCC)[C@@H](O)c1ccc(Cl)cc1)c1ccccc1 | -0.19
CCCCCCC(=O)Nc1nc(C)c(-c2csc(Nc3cccc(OC)c3)n2)s1 | 28.5
CN(Cc1ccccc1)CC(O)COc1ccc(CNCc2cc3ccccc3s2)cc1 (configuration not stated) | -2.3
Cc1ccc(Cn2c(SCC(=O)N/N=C/c3ccccc3OCC(=O)O)nc3ccccc32)cc1 | 50
CC(C)[C@@H](C)/C=C/[C@@H](C)[C@H]1CC[C@@H]2[C@]1(C)CCC1[C@]23C=C[C@]2(C[C@@H](O)CC[C@]12C)N(c1ccc([N+](=O)[O-])cn1)O3 (some centres not stated) | 27.1
C=CCN1C(=O)[C@@H](CC(=O)NCCCOCCCC)[C@]2(C(=O)OCC)CCCCC/C=C/12 | 0.69
O=C(CSc1nc2ccccc2n1Cc1ccccc1Cl)N/N=C\c1c[nH]c2ccccc12 | 12.2
COc1ccc(NC(=O)CSc2nnnn2-c2cccc(OC)c2)cc1 | 1.33

Notebook: CC1(C)OC(=O)C2=C(CC(CCc3ccccc3)OC2c2ccc(Cl)cc2)O1 (configuration not stated) , inhibition read as 3.44

Notebook: `COc1cccc(-c2cc(CNC(=O)[C@@H](Cc3ccccc3)NC(=O)[C@H]3O[C@@H](n4cnc(C(N)=O)n4)[C@H](O)[C@@H]3O)no2)c1` , inhibition read as 6.53

Notebook: `COc1ccc(CN2C/C(=C/c3ccccc3)N3C(=O)C[C@@H](c4ccccc4)N=C23)c(OC)c1` , inhibition read as 2.75

Notebook: `O=c1oc(-c2ccccc2NS(=O)(=O)c2ccc(Cl)cc2)nc2ccccc12` , inhibition read as 39.1

Notebook: `C[C@@H](CN1C2=NC[C@@H](Cc3ccccc3)N2C[C@H]1Cc1ccc(O)cc1)NC(=O)CCC1CCCCC1` , inhibition read as 10.8

###

method.summary: binders of r(CAG) RNA repeats, primary screen, biochemical, fluorescence (AID 651821);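 further: 0% = DMSO alone and 100% = 100 µM mitoxantrone as full dye displacement; higher means more dye released from RNA so lower well fluorescence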
assay.conditions: r(CAG) RNA repeat, TO-PRO-1 dye displacement fluorescence; at 3 µM; active compounds read high
In all, about 370,000 compounds went through this assay and about 4,700 (1.3%) were called active. This excerpt belongs to a sample that is enriched for actives.
Below: a set of entries, each annotated with reported inhibition.

compound | inhibition
COC(=O)c1ccc2nc(-c3ccc(OC)c(OC)c3)c(Cc3ccccc3)n2c1 | 9.92% (inactive)
Brc1ccc2nc(-c3ccccc3)c(Cc3ccccc3)n2c1 | 13.1% (inactive)
CN(c1ccccc1)S(=O)(=O)c1ccc(C(=O)NCc2cccnc2)cc1 | 2.25% (inactive)
Cc1ccc(-c2nc3ccc(Br)cn3c2Cc2ccccc2C(F)(F)F)cc1 | 30.3% (inactive)
Cc1ccc(-c2nc3c(C)cc(Br)cn3c2Cc2ccccc2)cc1 | 10.3% (inactive)
CC(C(=O)Nc1ccc(O)c(C(=O)O)c1)N1C(=O)/C(=C/c2cccs2)SC1=S (stereo unspecified) | 87.5% (active)
COc1ccc(OCC(=O)Nc2nnc(-c3ccco3)s2)cc1 | 35.6% (active)
CCOC(=O)[C@@]12CCC3=C1N(CCC3)C(=O)[C@H](CC(=O)N1CCN(C(=O)c3ccco3)CC1)C2 | 4.55% (inactive)
CCOC(=O)[C@]12CCCC=C1N(CCCOC)C(=O)[C@@H]2CC(=O)N1CCOCC1 | 0.28% (inactive)
Cc1ccc2c(CN3CCN(S(=O)(=O)c4ccccc4C(F)(F)F)CC3)cc(=O)oc2c1 | 10% (inactive)

Here is another compound to look at.
Notebook: `CN(C)Cc1ccc(F)cc1Sc1cc(Cl)ccc1Cl` , inhibition read as -7.65% (inactive)

###

method.summary: binders of r(CAG) RNA repeats, primary screen, biochemical, fluorescence (AID 651821);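 further: 0% = DMSO alone and 100% = 100 µM mitoxantrone as full dye displacement; higher means more dye released from RNA so lower well fluorescence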
assay.conditions: r(CAG) RNA repeat, TO-PRO-1 dye displacement fluorescence; at 3 µM; active compounds read high
Among all 370,000 compounds or so, about 4,700 (1.3%) were called active. The list comes from a sample in which actives are over-represented; it also holds close analogues and randomly drawn compounds.
value.kind: inhibition (%)
Lab book: enter the figure in %, no units written.

molecule | result.unit | inhibition
CCOC(=O)/C=C/c1ccccc1O | % | 0.7
COc1ccc2c(c1)N(C)/C(=C1/SC(=S)N(NC(C)=O)C1=O)S2 | % | 5.15
CCN1N=C(c2ccccc2)CCC1=O | % | -0.41
O=C(N[C@@H](Cc1c[nH]c2ccccc12)C(=O)O)OCC1c2ccccc2-c2ccccc21 | % | 59.4
O=C(NC(Cc1c[nH]c2ccccc12)C(=O)O)/C(=C/c1ccco1)NC(=O)c1ccccc1 (centres undefined) | % | 20.3
COC(=O)C1=C(C)N(Cc2cccc(C(F)(F)F)c2)C(=NCc2ccccc2)NC1c1ccccc1C(F)(F)F (centres undefined) | % | 4.41

Notebook: `COC(=O)C[C@H]1CC[C@H]2[C@H](COc3ccc(NC(=O)C4CC4)cc3C(=O)N2C)O1` , inhibition read as -1.01

Notebook: C=CCN=C1NC(c2ccccc2)C(C(=O)OC)=C(C)N1Cc1ccc(C(F)(F)F)cc1 (centres undefined) , inhibition read as 8.06

Notebook: CCOC(=O)C1=C(C)NC(SC)=NC1c1ccccc1 (centres undefined) , inhibition read as 0.67
